Collected TGI values appear next to each entry.
# Tested on: CAKI-1 renal
# PROTOCOL_TEXT: NCI tumour cell line growth inhibition, 48 h

These solved cases illustrate the format of a correct answer.
Cc1nc2ccccn2c1NC(=O)NNC(=S)Nc1ccc(Cl)cc1 : > 100 µM
COCP1(=S)OC(C)CCN1C(C)C (configuration not stated) : > 100 µM
COC(=O)c1c(O)c2c(c3c1OC(C)(C)CC3)OC(C)(C)CC2 : 53.9 µM
Cn1cc(C2=C(c3cn(C)c4ccc(OCc5ccccc5)cc34)C(=O)NC2=O)c2ccccc21 : > 25 µM
COc1ccc(C(O)c2cc3c(N)c(C(=O)Nc4ccc(Br)cc4)sc3nc2C)cc1 (configuration not stated) : 14.2 µM

[in] Field request: TGI | item: CC(C)=C1C(=O)c2c(Cl)sc(Cl)c2C1=O
[out] 32.7 µM

[in] Which value of TGI has been reported for Nc1nonc1-c1nc2cnccc2n1C1CCCCC1 in the records?
[out] > 25 µM

[in] What value of TGI has been reported for the following compound? O=C(CC(=O)Nc1ccc(C(=O)O)cc1)Nc1ccc(C(=O)O)cc1
[out] > 100 µM

[in] Which TGI is listed for Cc1c(C)c(S(=O)(=O)N(CCCCCCN)OCCCN)c(C)c2c1OC(C)(C)CC2 ?
[out] > 53.1 µM

====

TGI listing for selected compounds.
# Tested on: MOLT-4 leukemia
# PROTOCOL_TEXT: NCI tumour cell line growth inhibition, 48 h

[in] Name the recorded TGI for O=c1nc2n(c3nsnc13)CCO2 .
[out] > 100 µM

[in] // returns reported TGI for input COC(=O)c1cc2cc(OC)c(OC)cc2cc(C(=O)OC)c1=O
[out] > 100 µM

====

# System: HS 578T breast
# PROTOCOL_TEXT: NCI tumour cell line growth inhibition, 48 h
Outcome label depends on TGI relative to 30 µM: at/above gives Condition met, below gives Condition not met.

Known results for compounds:
Cc1cc2nc3c4cc(C=O)ccc4n(CCN(C)C)c3nc2cc1C : Condition not met
Cc1ccc2cc3c(N)c4c(C)ccc(C)c4nc3nc2c1 : Condition met
COc1ccc(-n2sc3ncc(C)cc3c2=O)cc1 : Condition met
O=C1C=CC(=O)C(c2cc(-c3ccc(Cl)cc3)nn2-c2ccccc2)=C1 : Condition met
COc1ccc(C2C(C#N)=C(N)Oc3c2sc2c(C)cccc32)cc1 (centres undefined) : Condition not met
COc1ccc(C(O)c2cc3c(N)c(C(=O)Nc4ccc(Br)cc4)sc3nc2C)cc1 (centres undefined) : Condition not met

[in] Given CC(=O)O[C@H]1C(=O)[C@@]2(C)[C@H]([C@H](OC(=O)c3ccccc3)[C@]3(O)C[C@H](OC(=O)[C@H](OC(=O)OC[C@@H]4COC(C)(C)O4)[C@@H](NC(=O)c4ccccc4)c4ccccc4)C(C)=C1C3(C)C)[C@]1(OC(C)=O)CO[C@@H]1C[C@@H]2O , state whether its TGI is at least 30 µM.
[out] Condition not met

[in] # check: TGI of CC1=NN(C2=NS(=O)(=O)c3ccccc3N2C)C(=O)C1 is greater than or equal to 30 µM
[out] Condition met

[in] Is TGI at least 30 µM? Consider Cc1ccc(-c2c3c(nn2-c2ccc(S(=O)(=O)NC(=O)Nc4ccccc4)cc2)-c2ccccc2C3)cc1
[out] Condition met

[in] Please indicate if the recorded TGI for COc1ccc(C2=Nn3c(nnc3-c3ccccc3)S/C2=C\c2ccc(-c3ccc([N+](=O)[O-])cc3)o2)cc1 meets or exceeds 30 µM.
[out] Condition met

[in] For this compound, is measured TGI 30 µM or higher? COCn1cnc2c(=O)n(-c3ccc(C)cc3)c(=S)n(-c3ccc(C)cc3)c21
[out] Condition met

Origin of measurements: PubChem BioAssay (NCI)
